target: mAb 6C6D7; test: SPR binding of K-tritrpticin (immobilised) to mAb 6C6D7; design: species or system BALB/c mice; details: 35 °C, KD = kdiss/kass, read-out: KD (dissociation constant)
Quantity kind: Kd (nM)
Field: numeric (nM). Do not append units.

Lab note: measured Kd of K-tritrpticin: tritrpticin with lysine introduced at the N terminus (KVRRFPWWWPFLRR) was 634

---

Biological target: mAb 6C6D7
Test: SPR binding of K-tritrpticin (immobilised) to mAb 6C6D7
Design: species or system BALB/c mice
Settings: 15 °C, KD = kdiss/kass, read-out: KD (dissociation constant)
Method: Affinity measurements were based on surface plasmon resonance (SPR) technique, carried out on BIAcore 2000 (GE Healthcare). […] The temperature sensitivity of Ag association and dissociation rates of the Ab was assessed on the basis of the Arrhenius plots. […] The individual thermodynamic parameters were calculated using the following equations: ΔHa/d = Ea-RT; ln(ka/d/T) = -ΔHa/d/RT + T∆S a/d/R + ln(K'/h). […]
Quantity kind: pKd
# pKd = -log10(concentration in molar units)

pKd measured on K-tritrpticin: tritrpticin with lysine introduced at the N terminus (KVRRFPWWWPFLRR) = 6.68
